assayed.system: Caspase-4 (Homo sapiens)
Construct: mixing the compounds with the respective active caspases; purchased BioVision K154-100
Sequence (P49662 81-270 limits assumed): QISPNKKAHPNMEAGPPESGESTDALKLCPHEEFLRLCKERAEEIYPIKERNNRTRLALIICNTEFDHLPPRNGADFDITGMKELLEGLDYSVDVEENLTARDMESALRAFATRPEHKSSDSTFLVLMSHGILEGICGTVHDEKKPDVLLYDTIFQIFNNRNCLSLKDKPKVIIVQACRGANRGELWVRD
Sequence (P49662 290-377 limits assumed): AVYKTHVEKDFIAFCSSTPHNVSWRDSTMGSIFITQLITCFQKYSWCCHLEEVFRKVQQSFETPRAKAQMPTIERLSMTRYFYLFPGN
assay.details: Caspase-4 inhibitor screening assay (BioVision kit, LEVD-AFC)
Assay type: biochemical
condition.notes: read-out: % Inhibition at 10 uM Casp4
Item-by-item account of inhibition at 10 µM
observable: inhibition at 10 µM (%)

[[record]]
molecule = "CS(=O)(=O)/C(Cl)=C/[C@@H](N)CC(=O)O"
observable = "inhibition at 10 µM"
unit_annotation = "%"
value = 0

[[record]]
molecule = "CS(=O)(=O)/C=C/[C@H](CC(=O)O)NC(=O)C1CCCN1C(=O)[C@@H](NC(=O)[C@H](CC(=O)O)NC(=O)OCc1ccccc1)C1CC1 (stereo in doubt)"
observable = "inhibition at 10 µM"
unit_annotation = "%"
value = 73

[[record]]
molecule = "CS(=O)(=O)/C=C/[C@H](CC(=O)O)NC(=O)[C@H]1CCCN1C(=O)[C@@H](NC(=O)[C@H](CC(=O)O)NC(=O)OCc1ccccc1)c1ccccc1"
observable = "inhibition at 10 µM"
unit_annotation = "%"
value = 50


----------
assayed.system: Caspase-3 (Homo sapiens, UniProt P42574)
Construct: mixing the compounds with the respective active caspases; purchased BioVision K153-100
Sequence (P42574 29-175 limits assumed): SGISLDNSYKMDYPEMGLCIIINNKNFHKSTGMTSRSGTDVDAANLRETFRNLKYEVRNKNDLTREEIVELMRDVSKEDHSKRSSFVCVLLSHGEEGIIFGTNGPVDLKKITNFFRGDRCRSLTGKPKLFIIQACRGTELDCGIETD
Sequence (P42574 176-277 limits assumed): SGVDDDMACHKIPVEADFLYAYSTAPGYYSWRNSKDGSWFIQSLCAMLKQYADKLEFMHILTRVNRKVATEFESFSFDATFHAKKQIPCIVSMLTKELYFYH
assay.details: Caspase-3 inhibitor screening assay (BioVision kit, DEVD-AFC)
Assay type: biochemical
condition.notes: read-out: % Inhibition at 10 uM Casp3
Description: […]
observable: inhibition at 10 µM (%)

[[record]]
compound = "CC(C)[C@H](NC(=O)[C@H](CCC(=O)O)NC(=O)[C@H](Cc1c[nH]c2ccccc12)NC(=O)OCc1ccccc1)C(=O)N[C@H](/C=C/S(C)(=O)=O)CC(=O)O"
value = 63

[[record]]
compound = "CC(C)(C)[C@@H](NC(=O)[C@H](CC(=O)O)NC(=O)OCc1ccccc1)C(=O)N1CC[C@@H]1C(=O)N[C@H](/C=C/S(C)(=O)=O)CC(=O)O"
value = 96

[[record]]
compound = "CC(C)(C)[C@H](NC(=O)[C@H](CC(=O)O)NC(=O)OCc1ccccc1)C(=O)N1CCCC1C(=O)N[C@H](/C=C/S(C)(=O)=O)CC(=O)O (stereo in doubt)"
value = 98

[[record]]
compound = "CCOC(=O)/C=C/[C@H](CC(=O)O)NC(=O)[C@@H](NC(=O)[C@@H](NC(=O)[C@H](CC(=O)O)NC(=O)OCc1ccccc1)c1ccccc1)C(C)C"
value = 99


----------
# maps each entry to its inhibition at 10 µM
assayed.system: Caspase-3 (Homo sapiens, UniProt P42574)
Construct: mixing the compounds with the respective active caspases; purchased BioVision K153-100
assay.details: Caspase-3 inhibitor screening assay (BioVision kit, DEVD-AFC)
Assay type: biochemical
condition.notes: read-out: % Inhibition at 10 uM Casp3
observable: inhibition at 10 µM (%)

[[record]]
smiles_text = "CCOC(=O)/C=C/[C@H](CC(=O)O)NC(=O)[C@H]1CCCN1C(=O)[C@@H](NC(=O)c1ccc2ccccc2n1)C(C)(C)C"
observable = "inhibition at 10 µM"
unit_annotation = "%"
value = 0

[[record]]
smiles_text = "CS(=O)(=O)/C=C/[C@H](CC(=O)O)NC(=O)[C@H](CCC(=O)O)NC(=O)c1ccc2ccccc2n1"
observable = "inhibition at 10 µM"
unit_annotation = "%"
value = 4

[[record]]
smiles_text = "CC(C)[C@H](NC(=O)OCc1ccccc1)C(=O)N[C@H](/C=C(\\Cl)S(C)(=O)=O)CC(=O)O"
observable = "inhibition at 10 µM"
unit_annotation = "%"
value = 1

[[record]]
smiles_text = "CS(=O)(=O)/C=C/[C@H](CC(=O)O)NC(=O)[C@@H](N)CCC(=O)O"
observable = "inhibition at 10 µM"
unit_annotation = "%"
value = 0

